These measurements were taken from patent US7109243B2.

Could you please report measured pKi for the items listed next?
biological target: Cathepsin S (Homo sapiens); assay: Cathepsin S inhibition assay (fluorogenic peptide substrate); type: biochemical; conditions: Table II, compounds of Formula I; read-out: Ki Cat. S
Sequence (P25774 115-331, species assumed): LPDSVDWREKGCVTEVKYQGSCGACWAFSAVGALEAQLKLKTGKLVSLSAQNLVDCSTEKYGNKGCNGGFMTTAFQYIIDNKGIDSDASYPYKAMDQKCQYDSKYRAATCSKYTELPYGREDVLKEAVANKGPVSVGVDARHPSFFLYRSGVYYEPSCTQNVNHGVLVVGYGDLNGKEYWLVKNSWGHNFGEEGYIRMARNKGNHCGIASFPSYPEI
pKi: −log10 of the molar value.

# smiles-str, pKi
records = [
    ("O=C(N[C@@H](CC1CCCCC1)C(=O)NCCNc1ccc(OC(F)(F)F)cc1)c1ccc(-c2ccccc2F)s1", "> 7.00"),
    ("O=C(N[C@@H](CC1CCCCC1)C(=O)NCCNc1ccc(OC(F)(F)F)cc1)c1ccc(-c2cccc(C(F)(F)F)c2)o1", "> 7.00"),
    ("COc1ccc(NCCNC(=O)[C@H](CC=Cc2ccccc2)NC(=O)c2cccc(C)c2)cc1", "> 7.00"),
    ("COc1ccc(NCCNC(=O)[C@H](Cc2ccccc2)NC(=O)c2cccnc2)cc1", "> 5.00"),
    ("Cc1cc(C)nc(Nc2ccc(C(=O)N[C@@H](CC3CCCCC3)C(=O)NCCNc3ccc(OC(F)(F)F)cc3)cc2)n1", "> 7.00"),
    ("C[C@@H](C(=O)N[C@@H](CC1CCCCC1)C(=O)NCCNc1ccc(F)cc1)c1ccccc1", "> 7.00"),
]

// switching to the query molecule
[in] Entry under review: `CC[C@@H](C(=O)N[C@@H](CC1CCCCC1)C(=O)NCCNc1ccc(F)cc1)c1ccccc1` . Reported pKi?
[out] > 7.00

----------
Target: Cathepsin S (Homo sapiens)
Assay: Cathepsin S inhibition assay (fluorogenic peptide substrate)
Assay type: biochemical
Details: Table II, compounds of Formula I; read-out: Ki Cat. S
Source text: “Inhibition constant”, Ki, is the dissociation constant of the enzyme-inhibitor complex, or the reciprocal of the binding affinity of the inhibitor to the enzyme. […] The inhibited rates are then fit by nonlinear regression to the following equation: […] The assumption being made for the classical inhibition described above is that the free inhibitor concentration is equal to the total inhibitor concentration. […]
pKi: −log10 of the molar value.
Could you please report measured pKi for the items listed next?

# compound, recorded-result
records = [
    ("COc1ccc(NCCNC(=O)[C@H](CC2CCCCC2)NC(=O)c2ccc(F)c(C)c2)cc1 [Compound 167]", "> 7.00"),
    ("COc1ccc(NCCNC(=O)C(NC(=O)c2cccc(C)c2)c2ccccc2Cl)cc1 (stereo not drawn) [Compound 216]", "> 6.00"),
    ("CS(=O)(=O)c1cccc(C(=O)N[C@@H](CC2CCCCC2)C(=O)NCCNc2ccc(F)cc2)c1 [Compound 296]", "> 7.00"),
    ("COc1ccc(NCCNC(=O)[C@H](Cc2ccc(Cl)cc2)NC(=O)c2ccc(-c3cccc(C(F)(F)F)c3)o2)cc1 [Compound 4]", "> 7.00"),
    ("COc1ccc2[nH]c(C(=O)N[C@@H](CC3CCCCC3)C(=O)NCCNc3ccc(OC(F)(F)F)cc3)cc2c1 [Compound 22]", "> 6.00"),
]

Would you mind listing pKi for each of the following compounds?
1. O=C(N[C@@H](CC1CCCCC1)C(=O)NCCNc1ccc(OC(F)(F)F)cc1)c1ccc(-c2cccc(F)c2)s1 [Compound 36]
2. COc1ccc(NCCNC(=O)[C@H](CC2CCCCC2)NC(=O)c2sc(N)nc2C)cc1 [Compound 114]
3. COc1ccc(NCCNC(=O)[C@H](Cc2ccc(-c3ccccc3[N+](=O)[O-])cc2)NC(=O)c2cccc(C)c2)cc1 [Compound 273]
4. O=C(Cc1ccccc1)N[C@@H](CC1CCCCC1)C(=O)NCCNc1ccc(F)cc1 [Compound 303]
5. COc1ccc(NCCNC(=O)[C@H](Cc2ccc(-c3cc(Cl)ccc3Cl)cc2)NC(=O)c2cccc(C)c2)cc1 [Compound 286]

[out]
> 7.00
> 7.00
> 6.00
> 7.00
> 5.00
